target-of-assay: T1, human-CD40-monomer protein (human, UniProt P25942 21-193, limits assumed)
T1 construct: Soluble monomer generated in house, used as SPR analyte; also called hCD40; hCD40-monomer
T1 sequence (P25942 21-193 limits assumed): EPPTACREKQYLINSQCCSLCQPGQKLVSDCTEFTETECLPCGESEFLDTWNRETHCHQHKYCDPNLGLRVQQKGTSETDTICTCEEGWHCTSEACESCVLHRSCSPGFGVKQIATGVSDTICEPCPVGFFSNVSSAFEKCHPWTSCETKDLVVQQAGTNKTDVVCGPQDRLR
assay-text: SPR, Ab captured on protein A, hCD40 monomer 500 and 50 nM, 1:1 fit; supernatant
endpoint: pKd
Scale for pKd: -log10 of concentration given in mol/L; no unit attached.

# pKd of Y12XX-hz20 (antibody, human IgG1, kappa, V domains shown, Humanized, IgG1-P238K; supernatant sample) VH: QVQLVQSGAEVKKPGSSVKVSCKASGYAFTSYWMHWVRQRPGQGLEWIGYINPTTGYSAYNQKFKDKATLTADKSTSTAYMELNSLRSEDTAVYYCARWDPRPFAYWGQGTLVTVSS VL: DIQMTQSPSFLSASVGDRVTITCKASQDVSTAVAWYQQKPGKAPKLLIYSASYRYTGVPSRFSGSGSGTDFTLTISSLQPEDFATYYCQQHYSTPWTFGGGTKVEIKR = 8.09

# pKd of Y12XX-hz2 (antibody, human IgG1, kappa, V domains shown, Humanized, IgG1-P238K; supernatant sample) VH: QVQLVQSGAEVKKPGSSVKVSCKASGYAFTSYWMHWVRQRPGQGLEWMGFINPTTGYSEYNQKFKDRVTITADKSTSTAYMELSSLRSEDTAVYYCARWGLPPFAYWGQGTLVTVSS VL: DIQMTQSPSSLSASVGDRVTITCKASQDVSTAVAWYQQKPGKAPKLLIYSASYRYTGVPSRFSGSGSGTDFTFTISSLQPEDIATYYCQQHYSTPWTFGGGTKVEIKR = 8.39

# pKd of Y12XX-hz23 (antibody, human IgG1, kappa, V domains shown, Humanized, IgG1-P238K; supernatant sample) VH: QVQLVQSGAEVKKPGSSVKVSCKASGYAFTSYWMHWVRQAPGQGLEWMGQINPSNGRSQYNEKFKTRVTITADKSTSTAYMELSSLRSEDTAVYYCARWGLQPFAYWGQGTLVTVSS VL: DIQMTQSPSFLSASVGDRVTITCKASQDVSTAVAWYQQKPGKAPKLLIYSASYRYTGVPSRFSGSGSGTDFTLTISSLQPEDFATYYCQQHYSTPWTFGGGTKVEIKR = 8.49
